test: Apparent permeability from basolateral to apical side in MDCK cells; type: ADME, cell-based, Canis lupus familiaris; details: dog
OBSERVATION TYPE: Papp B→A (×10⁻⁶ cm/s)
Field: numeric (×10⁻⁶ cm/s). Do not append units.

Consider the reported Papp B→A for these compounds:
QUERY SMILES: O=C(c1cccs1)N1CCN(CCOc2ccc(Cl)cc2Cl)CC1
Papp B→A / ×10⁻⁶ cm/s: 19.1
//
QUERY SMILES: Cc1ccc(OCCN2CCN(C(=O)c3cccs3)CC2)cc1
Papp B→A / ×10⁻⁶ cm/s: 31.1

Note: attention shifts to another entry.
Quick one: give measured Papp B→A for "O=C(c1cccs1)N1CCN(CCOc2ccc(Cl)cc2)CC1"
21.9

Reference source for all entries: ChEMBL document CHEMBL3259670
